These data points were gathered from BindingDB's records for patent US12084420.

# targetOfAssay: Kinesin-like protein KIF18A (Homo sapiens)
pIC50: −log10 of the molar value.
assayEndpoint: pIC50

molecule	targetOfAssay	pIC50
O=C(c1cccc(S(=O)(=O)N2CCC(F)(F)CC2)c1)N1CC2(CCCC2)c2cc(NS(=O)(=O)CCO)ccc21 [US12084420, Compound 27]	Kinesin-like protein KIF18A (Homo sapiens)	7.08

P. CC(C)(C)NS(=O)(=O)c1cc(C(=O)N2CC3(CCCCC3)c3cc(NS(C)(=O)=O)ccc32)cs1 [US12084420, Compound 231]
Q. CC(C)(C)NS(=O)(=O)c1csc(C(=O)N2CC3(CCCCC3)c3cc(NS(C)(=O)=O)ccc32)c1 [US12084420, Compound 147]
R. CC(C)(C)NS(=O)(=O)c1cc(C(=O)N2CC3(CCC4(CC4)CC3)c3cc(NS(C)(=O)=O)ccc32)co1 [US12084420, Compound 319]
(Q) Give the ascending ranking of the items by reported pIC50. Put the labels in the requested order and list them out.
(A) R, Q, P

* * *

# targetOfAssay: Kinesin-like protein KIF18A (Homo sapiens)
# Sequence (Q8NI77 whole entry): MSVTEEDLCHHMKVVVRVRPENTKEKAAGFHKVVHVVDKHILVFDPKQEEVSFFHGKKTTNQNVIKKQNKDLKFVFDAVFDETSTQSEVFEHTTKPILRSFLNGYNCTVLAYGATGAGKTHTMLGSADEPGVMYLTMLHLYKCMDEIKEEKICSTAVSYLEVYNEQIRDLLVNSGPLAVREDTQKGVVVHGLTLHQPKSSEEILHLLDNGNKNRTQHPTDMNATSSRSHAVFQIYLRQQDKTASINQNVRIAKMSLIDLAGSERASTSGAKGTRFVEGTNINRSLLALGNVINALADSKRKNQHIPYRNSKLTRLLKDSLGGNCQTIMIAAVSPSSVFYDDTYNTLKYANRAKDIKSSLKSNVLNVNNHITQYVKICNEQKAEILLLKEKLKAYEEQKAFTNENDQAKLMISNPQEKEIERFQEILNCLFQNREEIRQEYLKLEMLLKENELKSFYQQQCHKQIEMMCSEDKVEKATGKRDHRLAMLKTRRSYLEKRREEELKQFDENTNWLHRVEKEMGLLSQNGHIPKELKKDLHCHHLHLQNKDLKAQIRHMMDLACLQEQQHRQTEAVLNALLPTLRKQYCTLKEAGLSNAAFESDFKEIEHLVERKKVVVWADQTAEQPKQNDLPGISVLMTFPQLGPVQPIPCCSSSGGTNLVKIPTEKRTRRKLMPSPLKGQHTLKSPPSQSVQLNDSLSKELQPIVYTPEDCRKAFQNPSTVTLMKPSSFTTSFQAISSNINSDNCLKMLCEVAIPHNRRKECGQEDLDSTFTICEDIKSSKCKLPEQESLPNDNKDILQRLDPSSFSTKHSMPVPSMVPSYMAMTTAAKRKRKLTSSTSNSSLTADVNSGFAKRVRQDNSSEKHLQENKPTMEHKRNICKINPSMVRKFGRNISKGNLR
assayEndpoint: IC50 (µM)

compound	IC50 [µM]
CS(=O)(=O)Nc1ccc2c(c1)C1(CCC3(CC3)CC1)CN2C(=O)c1cccc(S(=O)(=O)NC2CC3CC3C2)c1 (stereo not drawn) [US12084420, Compound 254]	0.01

1. CS(=O)(=O)Nc1ccc2c(c1)C1(CCC3(CC3)CC1)CN2C(=O)c1cccc(/C=N/N2CCCCC2)c1 [US12084420, Compound 318]
2. CC(C)(CO)NS(=O)(=O)c1cccc(C(=O)N2CC3(CCC4(CC4)CC3)c3cc(NS(C)(=O)=O)ccc32)c1 [US12084420, Compound 220]
(Q) I'm curious, which of these has a smaller IC50 number: 1 or 2 ? Please indicate the selected item by its label.
(A) 2
(2: 0.016 µM, 1: 0.93 µM)
